# test.target: Bromodomain-containing protein 4 (Homo sapiens)
# experiment.summary: Binding affinity to BRD4-BD1 (unknown origin)
experimental.endpoint: Kd (nM)
Numeric only. Scale: nM

smiles.notation	unit.of.measure	Kd
CN1C(=O)c2ccccc2N(C)c2cc(N[C@H]3CC[C@H](O)CC3)ncc21	nM	130

Please turn your attention to the following entry.
Just so you know, measured Kd for `CCOc1cc(C(=O)N2CCC(N3CCCC3)CC2)ccc1Nc1cc2c(cn1)N(C)C(=O)c1ccccc1N2C` came out at 22

---

# test.target: Bromodomain-containing protein 4 (Homo sapiens, UniProt O60885)
# experiment.summary: Inhibition of BRD4-BD1 (unknown origin) by TR-FRET assay
experimental.endpoint: pIC50
Note: pIC50 values are expressed as the negative base-10 logarithm of concentration in M.

Below, 6 compounds whose answers are already recorded.
compound	pIC50
CN1C(=O)c2c(F)cccc2Oc2cc(N[C@H]3CC[C@H](O)CC3)ncc21	5.90
CN1C(=O)c2ccccc2N(C)c2cc(N[C@H]3CC[C@@H](O)CC3)ncc21	5.16
CN1C(=O)c2cccc(F)c2Oc2cc(N[C@H]3CC[C@H](O)CC3)ncc21	4.95
CCO[C@@H]1CCCC[C@@H]1Nc1cc2c(cn1)N(C)C(=O)c1ccccc1N2C (relative stereo)	4.81
CN1C(=O)c2ccccc2N(C)c2cc(N[C@H]3CC[C@H](O)CC3)ncc21	5.22
CN1C(=O)c2c(F)ccc(F)c2Oc2cc(N[C@H]3CC[C@H](O)CC3)ncc21	5.70

compound `COc1cccc2c1Oc1cc(N[C@H]3CC[C@H](O)CC3)ncc1N(C)C2=O` , pIC50 observed: 5.55

So, `CN1C(=O)c2cccc(Cl)c2Oc2cc(N[C@H]3CC[C@H](O)CC3)ncc21` ? Its pIC50 was 4.89

Recorded result, `CCO[C@H]1CC[C@H](Nc2cc3c(cn2)N(C)C(=O)c2ccccc2N3C)CC1` , pIC50: 5.00

# pIC50 (compound: `CN1C(=O)c2ccccc2Oc2cc(N[C@H]3CC[C@H](O)CC3)ncc21` ) is 5.03

---

# test.target: Bromodomain-containing protein 2 (Homo sapiens)
# Sequence (P25440 whole entry, the tested form may be a part): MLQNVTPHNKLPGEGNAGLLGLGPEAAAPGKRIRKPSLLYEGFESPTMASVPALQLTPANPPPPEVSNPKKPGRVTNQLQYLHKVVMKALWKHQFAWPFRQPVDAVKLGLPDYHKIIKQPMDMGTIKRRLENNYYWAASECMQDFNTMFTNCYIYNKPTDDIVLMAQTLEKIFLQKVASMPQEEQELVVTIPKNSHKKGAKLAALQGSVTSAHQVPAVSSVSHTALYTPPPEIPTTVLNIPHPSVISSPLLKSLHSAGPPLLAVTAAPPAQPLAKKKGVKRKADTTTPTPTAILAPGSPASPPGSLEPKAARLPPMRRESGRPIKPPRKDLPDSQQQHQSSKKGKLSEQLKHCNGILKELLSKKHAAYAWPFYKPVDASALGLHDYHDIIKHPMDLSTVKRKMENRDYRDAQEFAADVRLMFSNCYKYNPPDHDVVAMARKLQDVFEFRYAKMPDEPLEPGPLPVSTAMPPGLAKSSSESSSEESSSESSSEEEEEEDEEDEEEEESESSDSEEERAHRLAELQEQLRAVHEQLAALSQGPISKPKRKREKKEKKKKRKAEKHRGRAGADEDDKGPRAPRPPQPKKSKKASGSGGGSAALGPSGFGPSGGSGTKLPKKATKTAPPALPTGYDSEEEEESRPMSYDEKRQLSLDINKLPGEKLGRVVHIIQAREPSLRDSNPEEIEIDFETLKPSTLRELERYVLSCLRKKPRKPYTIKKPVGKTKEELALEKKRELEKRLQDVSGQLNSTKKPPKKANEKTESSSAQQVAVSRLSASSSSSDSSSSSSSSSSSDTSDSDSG
# experiment.summary: Binding affinity to human partial length BRD2-BD2 (E348 to D455 residues) expressed in bacterial expression system by BROMOscan method
experimental.endpoint: Kd (nM)
Write it as a number; the unit nM goes unstated.

The reported Bromodomain-containing protein 2 (Homo sapiens) Kd of `CN1C(=O)c2c(F)cccc2Oc2cc(N[C@H]3CC[C@H](O)CC3)ncc21` is 160

---

# test.target: Mitogen-activated protein kinase 7 (Homo sapiens, UniProt Q13164)
# Sequence (Q13164 whole entry): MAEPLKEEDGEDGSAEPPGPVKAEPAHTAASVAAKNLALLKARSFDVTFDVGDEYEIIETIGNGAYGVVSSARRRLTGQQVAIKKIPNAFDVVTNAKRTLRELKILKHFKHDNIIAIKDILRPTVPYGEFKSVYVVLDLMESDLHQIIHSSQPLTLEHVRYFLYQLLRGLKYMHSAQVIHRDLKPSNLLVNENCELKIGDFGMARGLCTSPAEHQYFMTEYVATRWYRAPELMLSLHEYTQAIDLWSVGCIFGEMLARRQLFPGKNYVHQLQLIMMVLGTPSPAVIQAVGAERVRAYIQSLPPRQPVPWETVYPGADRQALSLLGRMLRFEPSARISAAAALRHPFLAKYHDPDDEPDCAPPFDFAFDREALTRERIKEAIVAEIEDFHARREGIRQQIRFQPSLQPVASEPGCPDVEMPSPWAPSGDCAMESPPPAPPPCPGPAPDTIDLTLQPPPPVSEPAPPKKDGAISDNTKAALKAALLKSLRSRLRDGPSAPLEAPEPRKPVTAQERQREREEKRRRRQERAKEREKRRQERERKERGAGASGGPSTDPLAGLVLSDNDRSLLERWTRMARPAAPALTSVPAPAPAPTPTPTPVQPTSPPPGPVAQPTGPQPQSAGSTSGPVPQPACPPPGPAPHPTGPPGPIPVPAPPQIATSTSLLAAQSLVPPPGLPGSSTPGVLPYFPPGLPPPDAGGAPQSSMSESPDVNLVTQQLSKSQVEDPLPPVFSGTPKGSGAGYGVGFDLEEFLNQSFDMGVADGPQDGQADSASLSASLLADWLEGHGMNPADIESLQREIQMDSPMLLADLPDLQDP
# experiment.summary: Inhibition of recombinant human ERK5 using myelin basic protein as substrate by [gamm33P]ATP based HotSpot radiometric assay
experimental.endpoint: pIC50
On this scale, pIC50 is minus log10 of a concentration expressed in M (mol/L).

Known pIC50 results, listed for orientation:
smiles.notation	pIC50
CCO[C@H]1CC[C@H](Nc2cc3c(cn2)N(C)C(=O)c2ccccc2N3C)CC1	7.09
CN1C(=O)c2ccccc2N(C)c2cc(N[C@H]3CC[C@@H](O)CC3)ncc21	5.65

Field pIC50 (system: Mitogen-activated protein kinase 7 (Homo sapiens, UniProt Q13164)) for entry `CN1C(=O)c2ccccc2Oc2cc(N[C@H]3CC[C@H](O)CC3)ncc21` = 6.58

For `CN1C(=O)c2cccc(F)c2Oc2cc(N[C@H]3CC[C@H](O)CC3)ncc21` on Mitogen-activated protein kinase 7 (Homo sapiens, UniProt Q13164), measured pIC50 was 6.41

---

// Kd lookup, one value per entry
# test.target: Bromodomain testis-specific protein (Homo sapiens, UniProt Q58F21)
# experiment.summary: Binding affinity to human partial length BRDT-BD2 (K250 to E382 residues) expressed in bacterial expression system by BROMOscan method
Answer format reminder: number followed by unit.

smiles.notation	result
CN1C(=O)c2c(F)cccc2Oc2cc(N[C@H]3CC[C@H](O)CC3)ncc21	220 nM

Here is the next item to consider.
Entry `CCNC(=O)C[C@@H]1N=C(c2ccc(Cl)cc2)c2cc(OC)ccc2-n2c(C)nnc21` , Kd reported as 60 nM

---

# test.target: Bromodomain testis-specific protein (Homo sapiens)
# experiment.summary: Binding affinity to human partial length BRDT-BD1 (N21 to E137 residues) expressed in bacterial expression system by BROMOscan method
experimental.endpoint: Kd

smiles.notation	test.target	Kd
CN1C(=O)c2c(F)cccc2Oc2cc(N[C@H]3CC[C@H](O)CC3)ncc21	Bromodomain testis-specific protein (Homo sapiens)	170 nM

As a next step, examine the compound that follows.
compound `CCNC(=O)C[C@@H]1N=C(c2ccc(Cl)cc2)c2cc(OC)ccc2-n2c(C)nnc21` , Kd observed: 112 nM

---

# experiment.summary: Stability of compound in human liver microsomes assessed as parent compound remaining after 1 hr
Reported values of remaining at 1 h for individual entries
Give a bare numeral; the unit % is implied.

Field: example entries. Status: answers known.
smiles.notation	remaining at 1 h / %
CN1C(=O)c2c(F)cccc2Oc2cc(N[C@H]3CC[C@H](O)CC3)ncc21	100
CN1C(=O)c2c(F)ccc(F)c2Oc2cc(N[C@H]3CC[C@H](O)CC3)ncc21	90
COc1cccc2c1Oc1cc(N[C@H]3CC[C@H](O)CC3)ncc1N(C)C2=O	85
CN1C(=O)c2ccccc2Oc2cc(N[C@H]3CC[C@H](O)CC3)ncc21	97

Summary for this compound, `CN1C(=O)c2cccc(F)c2Oc2cc(N[C@H]3CC[C@H](O)CC3)ncc21` : remaining at 1 h is 114

Short answer for `CN1C(=O)c2cccc(Cl)c2Oc2cc(N[C@H]3CC[C@H](O)CC3)ncc21` : remaining at 1 h was 103

---

# test.target: Bromodomain-containing protein 4 (Homo sapiens, UniProt O60885)
# experiment.summary: Inhibition of BRD4-BD1 (unknown origin)
experimental.endpoint: IC50 (nM)
Report the value in nM with no unit label.

The recorded IC50 for entry `CCOc1cc(C(=O)N2CCC(N3CCCC3)CC2)ccc1Nc1cc2c(cn1)N(C)C(=O)c1ccccc1N2C` equals 1290

---

# test.target: Bromodomain-containing protein 4 (Homo sapiens, UniProt O60885)
# experiment.summary: Binding affinity to human partial length BRD4-BD1 (N44 to E168 residues) expressed in bacterial expression system by BROMOscan method
experimental.endpoint: Kd (µM)
Your answer is read as µM, so omit the unit and give the number.

Kd reported for this molecule `CN1C(=O)c2c(F)cccc2Oc2cc(N[C@H]3CC[C@H](O)CC3)ncc21` : 0.078

---

# test.target: Bromodomain-containing protein 4 (Homo sapiens, UniProt O60885)
# experiment.summary: Inhibition of BRD4 in human PBMC assessed as reduction in LPS-induced TNFalpha secretion preincubated for 1 hr followed by LPS-stimulation and measured after 20 hrs by magnetic beads technique based assay
experimental.endpoint: pEC50
Scale explanation: pEC50 corresponds to minus log10 of a concentration expressed in moles per litre.

See these solved cases before continuing.
compound	pEC50
COc1cccc2c1Oc1cc(N[C@H]3CC[C@H](O)CC3)ncc1N(C)C2=O	5.86
CN1C(=O)c2ccccc2N(C)c2cc(N[C@H]3CC[C@@H](O)CC3)ncc21	5.51
CCO[C@@H]1CCCC[C@@H]1Nc1cc2c(cn1)N(C)C(=O)c1ccccc1N2C (relative stereo)	5.53
CCO[C@H]1CC[C@H](Nc2cc3c(cn2)N(C)C(=O)c2ccccc2N3C)CC1	5.56

Entry under test: `CN1C(=O)c2ccccc2N(C)c2cc(N[C@H]3CC[C@H](O)CC3)ncc21` . Its pEC50 was 5.68

Value of pEC50 reported for the compound `CN1C(=O)c2cccc(F)c2Oc2cc(N[C@H]3CC[C@H](O)CC3)ncc21` is 5.76

The compound listed as `CN1C(=O)c2c(F)cccc2Oc2cc(N[C@H]3CC[C@H](O)CC3)ncc21` has a reported pEC50 of 6.36

Note to self: pEC50 recorded for `CN1C(=O)c2ccccc2Oc2cc(N[C@H]3CC[C@H](O)CC3)ncc21` was 5.57

Summary for this compound, `CN1C(=O)c2cccc(Cl)c2Oc2cc(N[C@H]3CC[C@H](O)CC3)ncc21` : pEC50 is 5.93

Reported pEC50 ( `CN1C(=O)c2c(F)ccc(F)c2Oc2cc(N[C@H]3CC[C@H](O)CC3)ncc21` ) = 6.37

---

# test.target: Bromodomain-containing protein 4 (Homo sapiens, UniProt O60885)
# experiment.summary: Binding affinity to human partial length BRD4-BD2 (K333 to E460 residues) expressed in bacterial expression system by BROMOscan method
experimental.endpoint: pKd
Reminder that pKd means the negative base-10 logarithm of the concentration expressed in mol/L.

Short answer on Bromodomain-containing protein 4 (Homo sapiens, UniProt O60885) for `CN1C(=O)c2c(F)cccc2Oc2cc(N[C@H]3CC[C@H](O)CC3)ncc21` , pKd: 7.14
